B1: HESX1 (parent)
chain: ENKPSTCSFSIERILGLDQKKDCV

- Variants of: B1
- assay_notes: protein stability index of a GFP-peptide fusion (GPS, HEK-293T) (PSI 1-6); higher = more stable;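 further: lentivirally expressed fusions sorted by FACS into six bins by GFP to DsRed ratio, PSI derived from sequencing read proportions per bin multiplied by bin number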
- experimental_setup: c terminus: a fixed tail appended
Readings of protein stability index for the listed variants
value_type: protein stability index

mutation_key | value_type | reported
I14Q | protein stability index | 4.12
G16Q | protein stability index | 3.76
C7T | protein stability index | 3.74
D22I | protein stability index | 1.94
D22C | protein stability index | 2.12
G16N | protein stability index | 3.41
K20A | protein stability index | 2.45
K21F | protein stability index | 2.35
L15A | protein stability index | 3.14
Q19D | protein stability index | 3.34
D18Q | protein stability index | 2.89
L15Q | protein stability index | 2.69
K20P | protein stability index | 2.75
C7D | protein stability index | 4.13
G16S | protein stability index | 3.28
I14L | protein stability index | 3.11
P4C | protein stability index | 2.42
S5Y | protein stability index | 2.54
C23H | protein stability index | 3.33
T6W | protein stability index | 2.53
S8V | protein stability index | 3.1
K3W | protein stability index | 2.93
R13L | protein stability index | 2.27
K20L | protein stability index | 1.93
N2I | protein stability index | 2.32
F9L | protein stability index | 4.07
F9A | protein stability index | 3.86
Q19M | protein stability index | 2.6
P4T | protein stability index | 3.67
K21L | protein stability index | 2.27
K21I | protein stability index | 1.9
I11T | protein stability index | 3.52
D22L | protein stability index | 1.5
D22P | protein stability index | 3.08
Q19S | protein stability index | 2.79
K20C | protein stability index | 2.52
G16W | protein stability index | 2.32
K20Y | protein stability index | 1.97
E12Y | protein stability index | 1.9
C23F | protein stability index | 2.62
L17K | protein stability index | 4.04
L15P | protein stability index | 3.44
E1I | protein stability index | 2.68
K21M | protein stability index | 2.05
D22Y | protein stability index | 2.14
K20Q | protein stability index | 2.56
I11Y | protein stability index | 3.13
I11F | protein stability index | 3.06
Q19I | protein stability index | 2.39
F9Y | protein stability index | 3.52
T6K | protein stability index | 2.41
L17V | protein stability index | 4.2
S10R | protein stability index | 2.71
I11R | protein stability index | 4.73
I11C | protein stability index | 3.27
L17G | protein stability index | 3.83
G16V | protein stability index | 3.15
I11S | protein stability index | 4.21
C23G | protein stability index | 3.56
K20W | protein stability index | 1.62
K21A | protein stability index | 2.41
S8L | protein stability index | 3.07
S5N | protein stability index | 3.09
D18E | protein stability index | 3.4
S10P | protein stability index | 4.28
S10Q | protein stability index | 3.26
I11A | protein stability index | 3.27
Q19A | protein stability index | 2.33
D22H | protein stability index | 2.04
L17I | protein stability index | 3.31
C23S | protein stability index | 3.45
N2R | protein stability index | 2.88
T6A | protein stability index | 3.46
I14V | protein stability index | 3.39
Q19T | protein stability index | 2.88
D22K | protein stability index | 2.73
D22W | protein stability index | 1.46
I14Y | protein stability index | 3.75
E1N | protein stability index | 2.77
